The following compounds are listed with their measured IC50 values.
test system: A549; test: Cytotoxicity against human A549 cells after 96 hrs by SRB assay; type: functional, cell-based; conditions: A549, 96 h
// units = µM; emit number, no label

{"columns": ["record smiles", "IC50 [µM]"],
 "data": [
  ["O=C(CCCN1CCCC1)Nc1cccc(NC(=O)c2ccc(NC(=O)Nc3ccc(C(=O)Nc4cccc(NC(=O)CCCN5CCCC5)c4)cc3)cc2)c1", 19.4]
]}

For the next question, use this compound.
QUERY: Suppose we examine the compound O=C(CCN1CCCC1)Nc1cc(NC(=O)Nc2cc(NC(=O)CCN3CCCC3)cc(C(=O)Nc3ccccc3)c2)cc(C(=O)Nc2ccccc2)c1 ; what IC50 value has been reported?
RESULT: 41.5
